EXPERIMENTAL_TARGET: ETS1 (UniProt P14921)
Sequence: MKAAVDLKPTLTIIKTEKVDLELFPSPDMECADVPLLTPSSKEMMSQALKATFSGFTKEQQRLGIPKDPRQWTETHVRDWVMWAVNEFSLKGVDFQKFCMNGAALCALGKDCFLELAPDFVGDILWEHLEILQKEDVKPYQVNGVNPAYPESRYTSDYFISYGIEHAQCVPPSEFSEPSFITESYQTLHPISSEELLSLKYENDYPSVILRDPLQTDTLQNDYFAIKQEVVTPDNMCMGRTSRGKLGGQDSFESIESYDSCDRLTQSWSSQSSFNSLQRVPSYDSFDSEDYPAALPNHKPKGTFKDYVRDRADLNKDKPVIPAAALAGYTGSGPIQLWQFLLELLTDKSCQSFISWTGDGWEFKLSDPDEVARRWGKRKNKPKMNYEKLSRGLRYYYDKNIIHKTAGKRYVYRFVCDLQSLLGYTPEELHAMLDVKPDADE
EXPERIMENT: ETS1 binding intensity (PBM fluorescence), ETS1 alone (arbitrary fluorescence units); higher = stronger binding
STUDY_CONDITIONS: ETS1 concentration 1 nM; RUNX1 concentration 0 nM
Would you kindly list ETS1 binding intensity for each of these sequences?
Reply briefly: the number, and no unit.

Q) Specify measured ETS1 binding intensity for TGTCGGGCGGATGTGTACCGGCGGTAATATAGTAAG .
A) 2300

Q) Specify measured ETS1 binding intensity for TGTTTTCGCTCTTCCTGGCCTTGCGGGCAGCCAGGA .
A) 390

Q) Specify measured ETS1 binding intensity for CCCACTGCGCCAGGATGTGGTCAGGTCGGTGACGTT .
A) 1560

Q) Specify measured ETS1 binding intensity for CCTCGGTTCGGAAACGGCGAAAGCAAACCGCAAGGA .
A) 478

Q) Specify measured ETS1 binding intensity for TGAAGTTCAGGGGGAAGTGGTTAGAGTCCCTGCGAG .
A) 494

Q) Specify measured ETS1 binding intensity for TGGGCCAGCACGTCCGGGTGGTCAGGACGCGCGCTT .
A) 458

Q) Specify measured ETS1 binding intensity for GCCAACAGGAAGCTGGAAGCCAACCGCACTGTGTGC .
A) 1190

Q) Specify measured ETS1 binding intensity for CTCTCCACCTCCTTCCGACCAGGACCGCACCCCCCC .
A) 986

Q) Specify measured ETS1 binding intensity for CCTGCGGATCACGGAAGTGGCTGCGGTCGGCGCCAT .
A) 2160

Q) Specify measured ETS1 binding intensity for CCACCCACTTCCTGCCCTAGCTAGTGTGGTATTTTT .
A) 1050

Q) Specify measured ETS1 binding intensity for TCAAGAAAACAGGAAACTCTCAAAACCAAGTTCTGA .
A) 1430

Q) Specify measured ETS1 binding intensity for GCCTCCTCAGGAAATTGCCCAAAATAGCCACATGTC .
A) 735

* * *

EXPERIMENTAL_TARGET: RUNX1 (UniProt Q01196)
Sequence (Q01196 whole entry): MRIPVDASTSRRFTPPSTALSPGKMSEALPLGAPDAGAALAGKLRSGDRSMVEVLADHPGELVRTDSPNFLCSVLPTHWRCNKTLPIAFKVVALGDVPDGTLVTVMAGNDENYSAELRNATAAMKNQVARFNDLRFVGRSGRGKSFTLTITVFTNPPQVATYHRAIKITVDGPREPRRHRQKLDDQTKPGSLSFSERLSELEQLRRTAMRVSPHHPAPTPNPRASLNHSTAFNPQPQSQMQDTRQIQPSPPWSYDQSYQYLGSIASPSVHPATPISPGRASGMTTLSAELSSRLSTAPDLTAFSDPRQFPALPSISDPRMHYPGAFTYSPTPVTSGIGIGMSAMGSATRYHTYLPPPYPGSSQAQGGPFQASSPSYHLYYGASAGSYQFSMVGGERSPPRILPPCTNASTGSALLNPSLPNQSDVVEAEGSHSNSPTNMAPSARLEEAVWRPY
EXPERIMENT: RUNX1 binding intensity (PBM fluorescence) in presence of ETS1, normalised to RUNX1-only experiment (arbitrary fluorescence units); higher = stronger binding
STUDY_CONDITIONS: RUNX1 concentration 2 nM; ETS1 concentration 25 nM
OBSERVATION_TYPE: RUNX1 binding intensity
Reply briefly: the number, and no unit.

Q) Fill in: RUNX1 binding intensity on RUNX1 (UniProt Q01196), entry CCTCACTAACATCCTGTTGAGGTGTCCCACAAACCA
A) 1490

Q) Fill in: RUNX1 binding intensity on RUNX1 (UniProt Q01196), entry CGAGATCCTGGCCACGGATGCGGTGGCCGCGCCTCT
A) 975

Q) Fill in: RUNX1 binding intensity on RUNX1 (UniProt Q01196), entry GCAGAAGGATTTCCTGTTTCAGGCAACCACAGCGAC
A) 1510

Q) Fill in: RUNX1 binding intensity on RUNX1 (UniProt Q01196), entry GAGCAAACGGAGGCAGGAAGTGGTTATGTAACTTCA
A) 2170

Q) Fill in: RUNX1 binding intensity on RUNX1 (UniProt Q01196), entry ACTCGGGAATGTCCGGTCGTGGTAAGCAGGGTGGCA
A) 1680

Q) Fill in: RUNX1 binding intensity on RUNX1 (UniProt Q01196), entry GGGGAAGAGGGGAGGATGTCTGAGGTTTTAATTGTA
A) 793

Q) Fill in: RUNX1 binding intensity on RUNX1 (UniProt Q01196), entry AGTTACAGTAAAGGATGTGGTGAAACAGATGTTTAT
A) 923

Q) Fill in: RUNX1 binding intensity on RUNX1 (UniProt Q01196), entry GCTGATAGAACAGGATGTGGTAAAGAAGCAGGCCAA
A) 7890

Q) Fill in: RUNX1 binding intensity on RUNX1 (UniProt Q01196), entry GATGGGCGAGTCAGGAAACCACAGCTCTGAGGGTGG
A) 1300

Q) Fill in: RUNX1 binding intensity on RUNX1 (UniProt Q01196), entry ACCAGCAACGGAAATCAGATCTCTTGTGGTTATTAT
A) 1680

Q) Fill in: RUNX1 binding intensity on RUNX1 (UniProt Q01196), entry CCGTGGAAGGAAACGCTGCCAACCGCAACAGAAATG
A) 3550

Q) Fill in: RUNX1 binding intensity on RUNX1 (UniProt Q01196), entry GCTGTCCGTTTCCGAGATGTTAATGCGGGATCTTGC
A) 988

Q) Fill in: RUNX1 binding intensity on RUNX1 (UniProt Q01196), entry CAGTGACAGGAAGTGGTTCAGCGGTTGTTTAGGGCT
A) 3830

Q) Fill in: RUNX1 binding intensity on RUNX1 (UniProt Q01196), entry CCTTCCTTCCTGCTGTGTACGTTGTGGTCACAGCAC
A) 3550

Q) Fill in: RUNX1 binding intensity on RUNX1 (UniProt Q01196), entry TTTTCTTTCCTAGGAAGTGGTTGCTGGGTTCTGAGG
A) 872

Q) Fill in: RUNX1 binding intensity on RUNX1 (UniProt Q01196), entry GCGGCTTTGTACGGAAACCCACACACATTGTTATTT
A) 1020

Q) Fill in: RUNX1 binding intensity on RUNX1 (UniProt Q01196), entry GACAGACCTTAGGAAGTCGCGGTTTCATCAGGGCTT
A) 1220

Q) Fill in: RUNX1 binding intensity on RUNX1 (UniProt Q01196), entry TTGACTCGGGAATGTCCGGTCGTGGTAAGCAGGGTG
A) 999

Q) Fill in: RUNX1 binding intensity on RUNX1 (UniProt Q01196), entry TGCCTTCTACTCCGGAACTCAGACCGCTGCCTTCTA
A) 946

Q) Fill in: RUNX1 binding intensity on RUNX1 (UniProt Q01196), entry GTGAACTTCCTCCCCCACTGCCTATTTTTACCGCAG
A) 3950

Q) Fill in: RUNX1 binding intensity on RUNX1 (UniProt Q01196), entry TCCAGCGGAAGGGGGCATCTTTGCGGCAGAGGCAGC
A) 979

Q) Fill in: RUNX1 binding intensity on RUNX1 (UniProt Q01196), entry CCTCGGTTCGGAAACGGCGAAAGCAAACCGCAAGGA
A) 3120

Q) Fill in: RUNX1 binding intensity on RUNX1 (UniProt Q01196), entry GCCGCTGGGTAGGCGGAAGTAGCCGCAGGCATGGCA
A) 1000

Q) Fill in: RUNX1 binding intensity on RUNX1 (UniProt Q01196), entry ACAGATACAGCCTCAGGAAGTGGTTTTGTATCTCTG
A) 1070

Q) Fill in: RUNX1 binding intensity on RUNX1 (UniProt Q01196), entry CTAAACCGGAAGCCGCCCCTCTGACCGCTCTAAAAC
A) 2010

Q) Fill in: RUNX1 binding intensity on RUNX1 (UniProt Q01196), entry CCCGACTTCCGCCGCTGGTGGCCACCCGCAGGTAGT
A) 2050

Q) Fill in: RUNX1 binding intensity on RUNX1 (UniProt Q01196), entry TTTATCATGAATGCAGGATGTGGGCAAACTCGCATC
A) 1060

Q) Fill in: RUNX1 binding intensity on RUNX1 (UniProt Q01196), entry TATCAATAAGGAAGTACAATCACCAAACCACAAGCC
A) 1140

Q) Fill in: RUNX1 binding intensity on RUNX1 (UniProt Q01196), entry ACCGGGTGCTGAGGAGGAAGTGGTTGCTATAACCCC
A) 1120

Q) Fill in: RUNX1 binding intensity on RUNX1 (UniProt Q01196), entry GCCACACAGGCAGGAAAGCCACAGCCCACGTCTCCG
A) 885

Q) Fill in: RUNX1 binding intensity on RUNX1 (UniProt Q01196), entry AAATCCACTCAGAGGAAACCACAGGCCTGGCCCAGC
A) 1690

Q) Fill in: RUNX1 binding intensity on RUNX1 (UniProt Q01196), entry CCGGCAGGAAGTTAGCATGGGCGGACCACACGGGGG
A) 1590

Q) Fill in: RUNX1 binding intensity on RUNX1 (UniProt Q01196), entry GGGGACCGGAAAGGGAGGGGTGGGCCGCAGGCGCCG
A) 1150

Q) Fill in: RUNX1 binding intensity on RUNX1 (UniProt Q01196), entry AGGTACCAGGCCCGGAAACCACGGAAAGGGGAACTT
A) 1100

Q) Fill in: RUNX1 binding intensity on RUNX1 (UniProt Q01196), entry AACAACTGACCGGACAGAACACAGCCACAAAACACG
A) 928

Q) Fill in: RUNX1 binding intensity on RUNX1 (UniProt Q01196), entry GGCTGTGCTTCAGGATGTGGTAATGCTTGGGAGGCG
A) 1360

Q) Fill in: RUNX1 binding intensity on RUNX1 (UniProt Q01196), entry TGCATGCAACAGGAAGTGGGGTGTGGTTTGTTCTGG
A) 1890

Q) Fill in: RUNX1 binding intensity on RUNX1 (UniProt Q01196), entry GCCACTTCCTGGAAAACAGTAATTACCACACGTCTC
A) 2160

Q) Fill in: RUNX1 binding intensity on RUNX1 (UniProt Q01196), entry CTGAGACATCCTGATAATTCTGTGGGTTACCCCAAA
A) 1280

Q) Fill in: RUNX1 binding intensity on RUNX1 (UniProt Q01196), entry ACACCGGAAGCCCAACAGCATGCCGAGTAACCACCC
A) 1310

Q) Fill in: RUNX1 binding intensity on RUNX1 (UniProt Q01196), entry CTCCTGTTCCGGCTCAAAGGGAAACCGCTGCTTTTC
A) 1460

Q) Fill in: RUNX1 binding intensity on RUNX1 (UniProt Q01196), entry CCTACACTTCCCAGAGAACCTAGCGGTTACGCCAAC
A) 1560

Q) Fill in: RUNX1 binding intensity on RUNX1 (UniProt Q01196), entry GAGTTCTCCGCTTCCTTGCGGCCGGCGGGATTAGCC
A) 1030

Q) Fill in: RUNX1 binding intensity on RUNX1 (UniProt Q01196), entry ATCAGTCAACTTCCCCCACTCCCTCCCACAAAGAAA
A) 1300

Q) Fill in: RUNX1 binding intensity on RUNX1 (UniProt Q01196), entry AGAAACATCCTGCCCAGCCACCTGACCACAAGGCAC
A) 3130

Q) Fill in: RUNX1 binding intensity on RUNX1 (UniProt Q01196), entry CCGAGCTTAACGACATCCTGCGGCTCAGCGTGGAGG
A) 1190

Q) Fill in: RUNX1 binding intensity on RUNX1 (UniProt Q01196), entry GCCAGCGGGGCTTCCGGCCCCGCAGGCAGAAGTCGA
A) 1260

Q) Fill in: RUNX1 binding intensity on RUNX1 (UniProt Q01196), entry AGCGCCGGAAGTGTGTCTGCGTAAAACTGCGGCTCG
A) 1520

Q) Fill in: RUNX1 binding intensity on RUNX1 (UniProt Q01196), entry GTCCTCTTCCTGTCCCCCAGGTGGGCATGTGGTTTG
A) 1790

Q) Fill in: RUNX1 binding intensity on RUNX1 (UniProt Q01196), entry TTAAGGAGCTTCCGGGGCCGCGGGTAGAGGCGGGTG
A) 1420
